Data provenance: patent US8735406B2

Biological target: FAAH (Rattus norvegicus, UniProt P97612)
Construct: Preparation of Rat Brain Membranes Preparations (FAAH Enzyme Solution); from tissue; host or cells: rat cerebrum (brain membrane preparation)
Experiment: Determination of FAAH inhibitory activity in rat (rat brain membrane preparations, [3H]-anandamide hydrolysis)
Format: biochemical
Conditions: rat brain membrane preparations; test substance 0.1 nM to 1 μM; read-out: FAAH Inhibition IC50
Method: Determination of FAAH Inhibitory Activity in Rat The preparation of rat brain membranes preparations and the determination of FAAH inhibitory activity were carried out according to the Jonsson et al. method [Br. J. Pharmacol., 133, 1263 (2001)]. (1) Preparation of Rat Brain Membranes Preparations (FAAH Enzyme Solution) The cerebrum was extracted from rats and was freeze-stored at −80° C. […]
pIC50: −log10 of the molar value.
endpoint.label: pIC50

# compound.string, measured.result
data = [
    ("COCCOCc1ncc2c(n1)n(C)c(=O)n2C(=O)N1CC(c2cccc(F)c2)C1", 8.10),
    ("CCOCc1ncc2c(n1)n(C)c(=O)n2C(=O)N1CC(c2ccccc2)C1", 7.96),
]

---

Molecular target: FAAH (Rattus norvegicus)
Construct: Preparation of Rat Brain Membranes Preparations (FAAH Enzyme Solution); from tissue; host or cells: rat cerebrum (brain membrane preparation)
Experiment: Determination of FAAH inhibitory activity in rat (rat brain membrane preparations, [3H]-anandamide hydrolysis)
Assay type: biochemical
Settings: rat brain membrane preparations; test substance 0.1 nM to 1 μM; read-out: FAAH Inhibition IC50
endpoint.label: IC50

Below, 2 compounds whose answers are already recorded.
# compound.string, endpoint.label, measured.result
data = [
    ("COCCCc1ncc2c(n1)n(C)c(=O)n2C(=O)N1CC(Oc2ccccc2)C1", "IC50", "> 100 nM"),
    ("CCN(CC)C(=O)n1c(=O)n(C)c2nc(-c3ccccc3)ncc21", "IC50", "> 100 nM"),
]

# ---- query compound ----
### Prompt Record request: IC50 value, item CCN(C)C(=O)n1c(=O)n(C)c2nc(C)ncc21
### Response > 100 nM

---

Biological target: FAAH (Rattus norvegicus)
Construct: Preparation of Rat Brain Membranes Preparations (FAAH Enzyme Solution); from tissue; host or cells: rat cerebrum (brain membrane preparation)
Sequence (P97612 1-579): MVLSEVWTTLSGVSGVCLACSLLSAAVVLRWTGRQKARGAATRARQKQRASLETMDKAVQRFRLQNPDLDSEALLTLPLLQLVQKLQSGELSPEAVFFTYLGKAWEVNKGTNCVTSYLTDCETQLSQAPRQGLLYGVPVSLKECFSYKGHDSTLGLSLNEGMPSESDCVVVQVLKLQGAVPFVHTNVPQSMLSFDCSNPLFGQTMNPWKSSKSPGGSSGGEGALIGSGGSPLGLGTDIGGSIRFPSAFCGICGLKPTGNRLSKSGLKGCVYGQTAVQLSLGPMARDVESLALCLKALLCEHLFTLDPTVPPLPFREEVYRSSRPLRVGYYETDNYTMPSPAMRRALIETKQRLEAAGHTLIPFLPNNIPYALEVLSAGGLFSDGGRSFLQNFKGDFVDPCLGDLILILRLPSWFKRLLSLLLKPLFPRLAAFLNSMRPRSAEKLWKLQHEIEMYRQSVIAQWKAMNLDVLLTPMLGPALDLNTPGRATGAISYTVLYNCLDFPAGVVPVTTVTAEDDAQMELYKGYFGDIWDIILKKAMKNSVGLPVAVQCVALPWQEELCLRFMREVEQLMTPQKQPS
Assay: Determination of FAAH inhibitory activity in rat (rat brain membrane preparations, [3H]-anandamide hydrolysis)
Assay type: biochemical
Settings: rat brain membrane preparations; test substance 0.1 nM to 1 μM; read-out: FAAH Inhibition IC50
pIC50: −log10 of the molar value.
endpoint.label: pIC50

# compound.string, pIC50
records = [
    ("COc1cccc(-c2ncc3c(n2)n(C)c(=O)n3C(=O)N2CCC(CCc3ccc(Cl)cc3)CC2)c1", 8.22),
]

[I] CN(C)C(=O)n1c(=O)n(C)c2cnc(-c3ccc(C(F)(F)F)cc3Cl)nc21
[II] CN(C)C(=O)n1c(=O)n(C)c2cnc(CCc3ccc(C4CC4)cc3)nc21
### Prompt Decide: I or II , by lowest recorded pIC50. Returns: label corresponding to the selected item.
### Response II

---

Molecular target: FAAH (Rattus norvegicus, UniProt P97612)
Construct: Preparation of Rat Brain Membranes Preparations (FAAH Enzyme Solution); from tissue; host or cells: rat cerebrum (brain membrane preparation)
Test: Determination of FAAH inhibitory activity in rat (rat brain membrane preparations, [3H]-anandamide hydrolysis)
Type: biochemical
Conditions: rat brain membrane preparations; 100 nM test substance; read-out: FAAH Inhibition, Inhibition Rate at 100 nM
endpoint.label: inhibition at 0.1 µM (%)

Some solved entries appear below for comparison.
# compound.string, endpoint.label, measured.result
records = [
    ("COc1ccc(-c2ncc3c(n2)n(C)c(=O)n3C(=O)N2CCCC2)cc1", "inhibition at 0.1 µM", 102),
    ("Cc1cccc(Cc2ncc3c(n2)n(C(=O)N2CCCC2)c(=O)n3C)c1", "inhibition at 0.1 µM", 93),
    ("Cn1c(=O)n(C(=O)N2CCCC2)c2cnc(-c3ccc(C(C)(C)C)cc3)nc21", "inhibition at 0.1 µM", 58),
    ("Cn1c(=O)n(C(=O)N2CCC(CCc3ccc(Cl)cc3)CC2)c2cnc(-c3cccnc3)nc21", "inhibition at 0.1 µM", 96),
]

[P] CC(=O)c1cccc(-c2ncc3c(n2)n(C)c(=O)n3C(=O)N2CCCC2)c1
[Q] Cn1c(=O)n(C(=O)N2CCC2)c2cnc(COc3cccc(C(F)(F)F)c3)nc21
### Prompt Hey, which is lower on measured inhibition at 0.1 µM, P or Q ? Could you answer with the label of the item you picked?
### Response Q
(Q: 55%, P: 102%)
